These measurements were taken from patent US20230310441A1.

# assayRemarks: Phase 1 FIH study: plasma pharmacokinetics in healthy participants
# Format: in vivo, human
# conditionNotes: human, plasma, po, healthy, oral, 120/60 mg, Day 22, N 6; read-out: tmax (median)
parameter: Tmax (h)
# value in h; strip the unit string

Reported Tmax ( C[C@H](NC(=O)Cn1nnc2ccccc2c1=O)c1ccc(OC(F)(F)F)cc1 ) = 3
